From: paper PMC12788799

- Target or test system: rat P2X7 (rP2X7) (Rattus norvegicus)
- Sequence (Q64663 whole entry): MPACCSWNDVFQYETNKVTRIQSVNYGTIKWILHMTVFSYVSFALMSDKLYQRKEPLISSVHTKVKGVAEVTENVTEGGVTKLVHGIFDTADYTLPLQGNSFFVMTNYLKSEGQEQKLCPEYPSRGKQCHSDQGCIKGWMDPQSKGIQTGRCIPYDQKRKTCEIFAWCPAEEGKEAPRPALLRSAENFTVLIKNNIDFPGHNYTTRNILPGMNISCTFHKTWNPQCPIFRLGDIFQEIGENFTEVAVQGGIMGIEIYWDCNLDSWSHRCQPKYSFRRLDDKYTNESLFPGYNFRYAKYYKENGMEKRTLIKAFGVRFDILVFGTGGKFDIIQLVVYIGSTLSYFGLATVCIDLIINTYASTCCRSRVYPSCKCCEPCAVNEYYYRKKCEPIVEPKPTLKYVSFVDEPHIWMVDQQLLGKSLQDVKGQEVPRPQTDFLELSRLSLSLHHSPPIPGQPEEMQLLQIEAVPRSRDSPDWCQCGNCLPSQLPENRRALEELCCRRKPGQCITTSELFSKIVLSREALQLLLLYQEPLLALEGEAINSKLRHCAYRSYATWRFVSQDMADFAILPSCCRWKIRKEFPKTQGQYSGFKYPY
- Assay details: Kinetics of covalent biotinylation in HEK293T cells (pull-down western blot); whole-cell patch-clamp inhibition of BzATP currents
Readout name: pKd
In plain terms, pKd is the concentration in mol/L turned into minus its base-10 logarithm.

Lookup: State its pKd on rat P2X7 (rP2X7) (Rattus norvegicus): N#CCN(C(=O)CCOCCOCCOCCOCCNC(=O)CCCC[C@@H]1SC[C@@H]2NC(=O)N[C@@H]21)S(=O)(=O)c1ccc(C(=O)NCCNc2ccc3c(NC(=O)CC45CC6CC(CC(C6)C4)C5)cccc3n2)cc1 [X7-uP]
Found: 5.14
